Biological target: CSF-1R (Homo sapiens)
Sequence (P07333 20-972): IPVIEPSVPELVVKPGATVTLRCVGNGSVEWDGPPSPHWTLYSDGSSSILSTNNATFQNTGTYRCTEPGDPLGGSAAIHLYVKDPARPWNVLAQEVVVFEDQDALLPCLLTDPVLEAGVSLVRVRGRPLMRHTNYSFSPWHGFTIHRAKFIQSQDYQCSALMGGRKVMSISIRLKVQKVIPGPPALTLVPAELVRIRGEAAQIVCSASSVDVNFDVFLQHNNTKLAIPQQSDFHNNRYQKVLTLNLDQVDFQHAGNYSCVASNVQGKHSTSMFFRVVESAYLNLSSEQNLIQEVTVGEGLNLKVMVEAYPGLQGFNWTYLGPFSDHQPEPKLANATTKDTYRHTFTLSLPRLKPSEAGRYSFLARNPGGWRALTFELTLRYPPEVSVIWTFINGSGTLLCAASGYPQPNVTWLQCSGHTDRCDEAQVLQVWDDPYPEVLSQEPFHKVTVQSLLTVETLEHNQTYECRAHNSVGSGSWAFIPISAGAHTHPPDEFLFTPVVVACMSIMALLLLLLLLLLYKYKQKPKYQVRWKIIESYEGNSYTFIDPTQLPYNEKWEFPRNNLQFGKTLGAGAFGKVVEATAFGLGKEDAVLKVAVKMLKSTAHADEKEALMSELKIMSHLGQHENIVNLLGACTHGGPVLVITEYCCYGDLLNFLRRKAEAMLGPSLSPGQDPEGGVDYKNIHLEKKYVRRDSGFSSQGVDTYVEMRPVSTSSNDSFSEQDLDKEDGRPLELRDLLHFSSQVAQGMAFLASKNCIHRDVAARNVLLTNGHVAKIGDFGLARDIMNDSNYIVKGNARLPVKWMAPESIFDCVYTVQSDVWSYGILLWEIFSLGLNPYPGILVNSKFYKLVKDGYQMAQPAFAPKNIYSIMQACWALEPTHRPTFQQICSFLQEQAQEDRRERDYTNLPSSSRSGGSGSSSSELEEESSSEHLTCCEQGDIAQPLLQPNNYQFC
Assay: CSF-1R in vitro kinase activity assay (HTRF kinEASE TK)
Type: biochemical
Conditions: compound 10 nM; read-out: CSF-1R inhibition rate, 10 nM
From the text: CSF-1R, PDGFR-α, KDR (VEGFR2) and KIT in vitro Kinase Activity Assay: […]
Property: inhibition at 0.01 µM

| Compound | Readout Value |
| --- | --- |
| CN(C)Cc1cncc(NC(=O)c2cccc3c2CC[C@@H]3Oc2cncc(-c3cnn(C)c3)c2)c1 [Compound 19h] | 72% |
| Cn1ncc2ncc(O[C@H]3CCc4c(C(=O)Nc5cncc(Cl)c5)cccc43)cc21 [Compound 76ac] | 71.9% |

Input line: Please give the measured inhibition at 0.01 µM for this compound: Cn1ncc2ncc(N[C@H]3CCc4c(C(=O)Nc5cccc(C6CC6)c5)cccc43)cc21 [Compound 73]
Output line: 70.2%

* * *

The entries below are paired with their reported inhibition at 0.01 µM.
Biological target: PDGFR-α (Homo sapiens)
Sequence (P16234 24-1089): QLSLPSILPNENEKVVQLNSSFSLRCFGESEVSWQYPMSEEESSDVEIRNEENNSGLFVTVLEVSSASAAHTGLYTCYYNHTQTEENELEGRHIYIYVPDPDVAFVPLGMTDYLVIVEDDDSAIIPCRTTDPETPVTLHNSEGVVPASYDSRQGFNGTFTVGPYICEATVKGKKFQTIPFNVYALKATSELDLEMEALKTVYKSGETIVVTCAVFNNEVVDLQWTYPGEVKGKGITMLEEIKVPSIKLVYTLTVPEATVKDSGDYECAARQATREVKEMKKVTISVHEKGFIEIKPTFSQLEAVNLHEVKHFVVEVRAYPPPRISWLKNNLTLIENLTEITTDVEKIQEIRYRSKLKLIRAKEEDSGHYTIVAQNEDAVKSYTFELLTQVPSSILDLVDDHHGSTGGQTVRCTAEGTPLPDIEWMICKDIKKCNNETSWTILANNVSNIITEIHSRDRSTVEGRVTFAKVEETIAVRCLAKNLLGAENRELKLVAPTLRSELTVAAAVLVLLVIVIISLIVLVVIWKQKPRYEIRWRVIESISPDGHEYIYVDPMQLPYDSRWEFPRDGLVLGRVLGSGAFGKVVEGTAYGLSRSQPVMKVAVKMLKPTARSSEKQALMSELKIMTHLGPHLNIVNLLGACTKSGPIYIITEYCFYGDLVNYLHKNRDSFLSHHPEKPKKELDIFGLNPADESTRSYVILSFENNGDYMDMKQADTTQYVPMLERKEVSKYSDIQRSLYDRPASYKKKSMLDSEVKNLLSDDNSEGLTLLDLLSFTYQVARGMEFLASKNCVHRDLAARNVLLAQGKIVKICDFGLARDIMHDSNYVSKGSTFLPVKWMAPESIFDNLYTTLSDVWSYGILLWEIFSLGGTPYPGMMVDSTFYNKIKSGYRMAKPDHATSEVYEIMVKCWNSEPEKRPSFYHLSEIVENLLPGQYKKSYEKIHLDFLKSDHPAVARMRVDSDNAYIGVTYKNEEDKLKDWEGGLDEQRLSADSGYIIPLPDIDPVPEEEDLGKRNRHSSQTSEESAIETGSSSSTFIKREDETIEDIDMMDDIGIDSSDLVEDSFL
Test: PDGFR-α in vitro kinase activity assay (HTRF kinEASE TK)
Assay type: biochemical
Details: compound 10 nM; read-out: PDGFRα inhibition rate, 10 nM
Answer with the value and then the unit.

Please review the entries below; each comes with its answer.
| Compound | inhibition at 0.01 µM |
| --- | --- |
| Cn1cc2ncc(O[C@H]3CCc4c(C(=O)Nc5nn(C)c6cccc(F)c56)cccc43)cc2n1 [Compound 76aw] | 88.5% |
| Cn1cc(-c2cnc(N)c(O[C@H]3CCc4c(C(=O)Nc5cccc(C6CC6)c5)cccc43)c2)cn1 | 90.9% |
| Cn1cc2ncc(N[C@H]3CCc4c(C(=O)Nc5nc(C6CC6)cs5)cccc43)cc2n1 [Compound 74h] | 29.3% |

Shifting focus to the compound that follows.
Input line: Give its inhibition at 0.01 µM value. Item: Cc1cncc(NC(=O)c2cccc3c2CC[C@@H]3Oc2cncc(-c3cnn(C)c3)c2)c1 [Compound 19j]
Output line: 23.5%

* * *

Measured inhibition at 0.1 µM accompanies every entry in the list below.
Molecular target: KDR (VEGFR2) (Homo sapiens)
Sequence (P35968 20-1356): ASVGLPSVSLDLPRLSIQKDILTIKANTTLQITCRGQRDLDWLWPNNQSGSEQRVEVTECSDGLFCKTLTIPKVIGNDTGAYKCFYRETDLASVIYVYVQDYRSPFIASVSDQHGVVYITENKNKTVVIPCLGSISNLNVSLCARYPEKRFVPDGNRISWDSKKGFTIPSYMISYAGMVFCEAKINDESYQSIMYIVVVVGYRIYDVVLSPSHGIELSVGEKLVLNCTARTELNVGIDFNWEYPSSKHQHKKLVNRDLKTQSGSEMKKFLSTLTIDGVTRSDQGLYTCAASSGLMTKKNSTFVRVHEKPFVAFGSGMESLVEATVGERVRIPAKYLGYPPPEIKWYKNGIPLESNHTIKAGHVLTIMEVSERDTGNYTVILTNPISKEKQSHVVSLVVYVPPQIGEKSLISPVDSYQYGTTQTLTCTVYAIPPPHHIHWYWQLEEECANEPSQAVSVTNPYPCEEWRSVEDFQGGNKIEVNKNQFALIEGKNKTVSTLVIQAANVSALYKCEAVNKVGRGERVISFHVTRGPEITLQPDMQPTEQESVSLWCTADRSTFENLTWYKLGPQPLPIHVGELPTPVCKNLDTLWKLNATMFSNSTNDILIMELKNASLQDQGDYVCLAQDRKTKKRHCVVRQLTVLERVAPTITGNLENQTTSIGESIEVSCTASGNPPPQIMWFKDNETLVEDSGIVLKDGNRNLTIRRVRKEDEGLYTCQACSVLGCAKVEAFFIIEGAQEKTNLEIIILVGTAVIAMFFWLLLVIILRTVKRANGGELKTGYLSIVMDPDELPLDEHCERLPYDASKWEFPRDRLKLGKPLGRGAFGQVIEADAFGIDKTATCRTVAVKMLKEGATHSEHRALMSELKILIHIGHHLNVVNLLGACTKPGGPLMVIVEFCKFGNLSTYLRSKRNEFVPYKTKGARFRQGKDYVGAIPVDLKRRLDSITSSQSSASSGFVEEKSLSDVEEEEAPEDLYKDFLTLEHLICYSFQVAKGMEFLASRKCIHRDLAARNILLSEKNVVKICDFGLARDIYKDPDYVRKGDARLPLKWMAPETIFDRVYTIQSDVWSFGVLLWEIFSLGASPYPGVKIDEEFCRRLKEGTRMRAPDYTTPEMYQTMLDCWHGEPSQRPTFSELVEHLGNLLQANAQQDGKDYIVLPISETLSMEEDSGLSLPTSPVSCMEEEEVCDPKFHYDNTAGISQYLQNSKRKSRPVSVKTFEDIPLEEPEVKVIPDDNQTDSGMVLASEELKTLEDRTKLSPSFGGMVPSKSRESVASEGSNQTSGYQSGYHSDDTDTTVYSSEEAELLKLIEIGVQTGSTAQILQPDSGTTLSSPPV
Experiment: KDR (VEGFR2) in vitro kinase activity assay (HTRF kinEASE TK)
Assay type: biochemical
Details: compound 100 nM; read-out: VEGFR2 inhibition rate, 100 nM
Express it in %; write the number only.

Solved entries (count: 4):
| Compound | Output Unit | inhibition at 0.1 µM |
| --- | --- | --- |
| Cc1cccc(NC(=O)c2cccc3c2CC[C@@H]3Oc2cnc3cn(C)nc3c2)n1 [Compound 76bd] | % | 97 |
| Cn1cc(-c2cncc(N[C@H]3CCc4c(Nc5noc(C(C)(C)C)n5)cccc43)c2)cn1 [Compound 42o] | % | 65.6 |
| Cn1cc(-c2cncc(N[C@H]3CCc4c(C(=O)Nc5nn(C)c6ccccc56)cccc43)n2)cn1 [Compound 27g] | % | 100 |
| Cn1ncc2ncc(N[C@H]3CCc4c(C(=O)Nc5cccc(C6CC6)c5)cccc43)cc21 [Compound 73] | % | 100 |

Now consider the entry below.
Input line: Quick one: inhibition at 0.1 µM for CN(C)Cc1cncc(NC(=O)c2cccc3c2CC[C@@H]3Oc2cncc(-c3cnn(C)c3)c2)c1 [Compound 19h] ?
Output line: 84.4

* * *

Biological target: KIT (Homo sapiens)
Test: KIT in vitro kinase activity assay (HTRF kinEASE TK)
Assay type: biochemical
Conditions: compound 100 nM; read-out: KIT inhibition rate, 100 nM
From the text: CSF-1R, PDGFR-α, KDR (VEGFR2) and KIT in vitro Kinase Activity Assay: […]
Kindly return YES if reported inhibition at 0.1 µM is no lower than 80%; return NO if it is lower.

Consider the following illustrative entries.
| Molecule | Label Class |
| --- | --- |
| CN(c1cnc2cn(C)nc2c1)[C@H]1CCc2c(C(=O)Nc3cncc(Cl)c3)cccc21 [Compound 80k] | NO |
| Cc1cccc(NC(=O)c2cccc3c2CC[C@@H]3Nc2cncc(-c3cnn(C)c3)c2)c1 [Compound 13] | YES |
| Cc1cccc(C(=O)Nc2cccc3c2CC[C@@H]3Oc2cncc(-c3cnn(C)c3)c2)c1 [Compound 15] | NO |

Input line: # bool: inhibition at 0.1 µM of Cc1cncc(NC(=O)c2cccc3c2CC[C@@H]3Oc2cncc(-c3cnn(C)c3)c2)c1 [Compound 19j] >= 80%
Output line: NO

Input line: Hi team, for Cn1cc(-c2cncc(O[C@H]3CCc4c(C(=O)Nc5cncc(Cl)c5)cccc43)c2)cn1 [Compound 19a] , is the recorded inhibition at 0.1 µM at or above 80%?
Output line: NO

Input line: Record Cn1cc(-c2cncc(N[C@H]3CCc4c(Nc5noc(C(C)(C)C)n5)cccc43)c2)cn1 [Compound 42o] ; criterion: inhibition at 0.1 µM no lower than 80%. Met?
Output line: NO

Input line: # check: inhibition at 0.1 µM of Cn1cc(-c2cncc(N[C@H]3CCc4c(Nc5cc(C(C)(C)C)on5)cccc43)c2)cn1 [Compound 41] is greater than or equal to 80%
Output line: NO

Input line: Please tell me: is the molecule Cc1cccc(NC(=O)c2cccc3c2CC[C@@H]3Oc2cnc3cn(C)nc3c2)n1 [Compound 76bd] at or over 80% in terms of inhibition at 0.1 µM?
Output line: NO

Input line: Hi team, for Cn1cc2ncc(N[C@H]3CCc4c(C(=O)Nc5nc(C6CC6)cs5)cccc43)cc2n1 [Compound 74h] , is the recorded inhibition at 0.1 µM at or above 80%?
Output line: YES

Input line: Is inhibition at 0.1 µM at least 80%? Consider Cn1cc(-c2cncc(N[C@H]3CCc4c(C(=O)Nc5cncc(Cl)c5)cccc43)c2)cn1 [Compound 14aa]
Output line: YES

Input line: hey, is inhibition at 0.1 µM for this one >= 80%? Cn1cc(-c2cnc(N)c(O[C@H]3CCc4c(C(=O)Nc5cccc(C6CC6)c5)cccc43)c2)cn1 [Compound 4]
Output line: YES

Input line: Test whether the molecule Cn1cc(-c2cncc(N[C@H]3CCc4c(C(=O)Nc5nn(C)c6ccccc56)cccc43)n2)cn1 [Compound 27g] records inhibition at 0.1 µM of 80% or higher.
Output line: YES

Input line: Determine whether measured inhibition at 0.1 µM meets or exceeds 80% for Cc1cncc(NC(=O)c2cccc3c2CC[C@@H]3Nc2cncc(-c3cnn(C)c3)c2)c1 [Compound 14as]
Output line: YES

Input line: Reported inhibition at 0.1 µM reaches at least 80% for CN(C)Cc1cncc(NC(=O)c2cccc3c2CC[C@@H]3Oc2cncc(-c3cnn(C)c3)c2)c1 [Compound 19h] ?
Output line: NO

* * *

Molecular target: KIT (Homo sapiens, UniProt P10721)
Sequence (P10721 26-976): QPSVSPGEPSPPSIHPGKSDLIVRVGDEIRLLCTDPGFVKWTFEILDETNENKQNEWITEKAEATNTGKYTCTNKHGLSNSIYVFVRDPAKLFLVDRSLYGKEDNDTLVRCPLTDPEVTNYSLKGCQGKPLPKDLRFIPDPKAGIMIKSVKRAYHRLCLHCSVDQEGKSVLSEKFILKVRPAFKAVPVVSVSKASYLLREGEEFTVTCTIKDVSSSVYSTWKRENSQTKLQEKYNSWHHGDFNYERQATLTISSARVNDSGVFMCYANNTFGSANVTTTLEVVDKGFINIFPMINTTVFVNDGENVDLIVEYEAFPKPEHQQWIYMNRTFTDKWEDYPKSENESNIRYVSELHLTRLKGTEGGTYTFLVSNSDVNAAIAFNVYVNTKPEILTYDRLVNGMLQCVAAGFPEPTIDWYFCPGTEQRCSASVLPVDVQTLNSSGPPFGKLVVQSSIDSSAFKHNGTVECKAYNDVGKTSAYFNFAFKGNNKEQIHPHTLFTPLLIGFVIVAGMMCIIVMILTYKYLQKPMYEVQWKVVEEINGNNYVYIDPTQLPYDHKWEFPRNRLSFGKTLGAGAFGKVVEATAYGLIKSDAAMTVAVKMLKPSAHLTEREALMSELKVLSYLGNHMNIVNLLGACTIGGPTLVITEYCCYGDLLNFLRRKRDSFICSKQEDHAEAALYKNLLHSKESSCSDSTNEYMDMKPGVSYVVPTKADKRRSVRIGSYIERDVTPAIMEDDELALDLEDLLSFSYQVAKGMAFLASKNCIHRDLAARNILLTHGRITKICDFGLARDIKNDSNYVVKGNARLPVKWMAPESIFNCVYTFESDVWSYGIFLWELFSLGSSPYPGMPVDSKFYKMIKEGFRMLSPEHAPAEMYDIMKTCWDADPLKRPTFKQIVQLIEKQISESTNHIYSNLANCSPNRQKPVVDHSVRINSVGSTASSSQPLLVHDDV
Assay: KIT in vitro kinase activity assay (HTRF kinEASE TK)
Type: biochemical
Conditions: compound 10 nM; read-out: KIT inhibition rate, 10 nM
Listed below: inhibition at 0.01 µM values for each entry.
Your answer is read as %, so omit the unit and give the number.

Consider the worked cases shown below.
| Compound | inhibition at 0.01 µM / % |
| --- | --- |
| Cn1cc(-c2cncc(N[C@H]3CCc4c(Nc5cc(C(C)(C)C)on5)cccc43)c2)cn1 | 7.5 |
| Cn1cc2ncc(O[C@H]3CCc4c(C(=O)Nc5cncc(Cl)c5)cccc43)cc2n1 [Compound 76ai] | 39.6 |
| Cc1cncc(NC(=O)c2cccc3c2CC[C@@H]3Nc2cncc(-c3cnn(C)c3)c2)c1 [Compound 14as] | 58.7 |
| Cn1cc(-c2cncc(N[C@H]3CCc4c(Nc5noc(C(C)(C)C)n5)cccc43)c2)cn1 [Compound 42o] | 14.5 |
| Cn1cc(-c2cnc(N)c(O[C@H]3CCc4c(C(=O)Nc5cccc(C6CC6)c5)cccc43)c2)cn1 | 76.8 |

Input line: Identify the measured inhibition at 0.01 µM of Cn1cc2ncc(N[C@H]3CCc4c(C(=O)Nc5nc(C6CC6)cs5)cccc43)cc2n1 [Compound 74h] for KIT (Homo sapiens, UniProt P10721).
Output line: 35.3

Input line: Form entry - test system: KIT (Homo sapiens, UniProt P10721); read-out: inhibition at 0.01 µM; compound: Cn1cc2ncc(O[C@H]3CCc4c(C(=O)Nc5nn(C)c6cccc(F)c56)cccc43)cc2n1 [Compound 76aw]
Output line: 56

Input line: Entry `Cn1ncc2ncc(N[C@H]3CCc4c(C(=O)Nc5cccc(C6CC6)c5)cccc43)cc21` , system KIT (Homo sapiens, UniProt P10721): what inhibition at 0.01 µM was measured?
Output line: 59.1

Input line: Param readout = inhibition at 0.01 µM; param system = KIT (Homo sapiens, UniProt P10721); param query = CN1CCc2nc(NC(=O)c3cccc4c3CC[C@@H]4Oc3cncc(-c4cnn(C)c4)c3)sc2C1 [Compound 19f] ; response: value
Output line: 12.1

Input line: Entry Cn1cc2ncc(O[C@H]3CCc4c(C(=O)Nc5nn(C)c6ccccc56)cccc43)cc2n1 [Compound 76al] , system KIT (Homo sapiens, UniProt P10721): what inhibition at 0.01 µM was measured?
Output line: 91.2
